- tgt: Dnmt3a-CD R200E (Mus musculus, UniProt O88508 608-908, R786E)
- Sequence (O88508 608-908 R786E): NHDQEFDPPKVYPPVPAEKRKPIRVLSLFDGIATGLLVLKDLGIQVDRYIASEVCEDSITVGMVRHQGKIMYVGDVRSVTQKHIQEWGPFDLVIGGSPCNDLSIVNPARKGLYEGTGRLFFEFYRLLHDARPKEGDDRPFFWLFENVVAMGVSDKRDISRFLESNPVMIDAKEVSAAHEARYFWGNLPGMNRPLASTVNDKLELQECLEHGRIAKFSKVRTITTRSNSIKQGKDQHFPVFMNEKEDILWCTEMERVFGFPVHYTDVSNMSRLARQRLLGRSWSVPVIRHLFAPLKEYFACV
- method: fluorescence polarization; Kd1; 0.1 mM AdoHcy; Fluorescence polarization: 10 nM duplex, 0.1 mM AdoHcy, Dnmt3a reaction buffer (composition not given), 25 °C; enzyme up to 600-800 nM
- condition_label: protein: recombinant; tags: His6; chain copies: 2; label: 5'-FAM on strand 1 (hexamethylene linker); blunt
pKd: −log10 of the molar value.
measured_metric: pKd

>>> value_measured("fGCGC/CGCG (dsDNA) DNA 1: CTGAATACTACTTGCGCTCTCTAACCTGAT DNA 2: ATCAGGTTAGAGAGCGCAAGTAGTATTCAG")
6.80
